- tested.on: T1, TNFR1 (Homo sapiens, UniProt P19438)
- T1 chain: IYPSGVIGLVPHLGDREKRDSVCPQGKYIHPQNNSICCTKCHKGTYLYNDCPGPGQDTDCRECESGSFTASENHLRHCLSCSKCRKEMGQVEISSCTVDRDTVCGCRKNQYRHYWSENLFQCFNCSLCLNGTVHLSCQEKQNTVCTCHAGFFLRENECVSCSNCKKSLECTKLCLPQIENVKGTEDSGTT
- procedure.summary: yeast display SC50
Kindly supply the reported apparent Kd (screen) values for the records listed here.
// units = nM; emit number, no label

Look up apparent Kd (screen) of S47V (designed binder) MTLQELLREEALRRAEAEAFRYALELLAEKFPEQKEYLLDLAEEIEVQIRSLSGVDVEDVRKFLDKEWAWVKELLAEHPAELAEVEAARAARLAELRAEVEAKVAA and report it.
0.446

Output measured apparent Kd (screen) for this item: E18W (designed binder) MTLQELLREEALRRAEAWAFRYALELLAEKFPEQKEYLLDLAEEIESQIRSLSGVDVEDVRKFLDKEWAWVKELLAEHPAELAEVEAARAARLAELRAEVEAKVAA
0.446

Given V71G (designed binder) MTLQELLREEALRRAEAEAFRYALELLAEKFPEQKEYLLDLAEEIESQIRSLSGVDVEDVRKFLDKEWAWGKELLAEHPAELAEVEAARAARLAELRAEVEAKVAA , respond with its apparent Kd (screen).
22.2

Provide only the value of recorded apparent Kd (screen) for E77D (designed binder) MTLQELLREEALRRAEAEAFRYALELLAEKFPEQKEYLLDLAEEIESQIRSLSGVDVEDVRKFLDKEWAWVKELLADHPAELAEVEAARAARLAELRAEVEAKVAA
0.653

Output apparent Kd (screen) of W70N (designed binder) MTLQELLREEALRRAEAEAFRYALELLAEKFPEQKEYLLDLAEEIESQIRSLSGVDVEDVRKFLDKEWANVKELLAEHPAELAEVEAARAARLAELRAEVEAKVAA
18.3

Complete the entry with apparent Kd (screen) for P32F (designed binder) MTLQELLREEALRRAEAEAFRYALELLAEKFFEQKEYLLDLAEEIESQIRSLSGVDVEDVRKFLDKEWAWVKELLAEHPAELAEVEAARAARLAELRAEVEAKVAA
0.653

Answer with the recorded apparent Kd (screen) of L27N (designed binder) MTLQELLREEALRRAEAEAFRYALELNAEKFPEQKEYLLDLAEEIESQIRSLSGVDVEDVRKFLDKEWAWVKELLAEHPAELAEVEAARAARLAELRAEVEAKVAA only.
0.49

Quickly give me recorded apparent Kd (screen) for L64V (designed binder) MTLQELLREEALRRAEAEAFRYALELLAEKFPEQKEYLLDLAEEIESQIRSLSGVDVEDVRKFVDKEWAWVKELLAEHPAELAEVEAARAARLAELRAEVEAKVAA
13.8
